The following molecules have recorded AC50 on Vasopressin V1a receptor (Homo sapiens, UniProt P37288).
Sequence (P37288 whole entry): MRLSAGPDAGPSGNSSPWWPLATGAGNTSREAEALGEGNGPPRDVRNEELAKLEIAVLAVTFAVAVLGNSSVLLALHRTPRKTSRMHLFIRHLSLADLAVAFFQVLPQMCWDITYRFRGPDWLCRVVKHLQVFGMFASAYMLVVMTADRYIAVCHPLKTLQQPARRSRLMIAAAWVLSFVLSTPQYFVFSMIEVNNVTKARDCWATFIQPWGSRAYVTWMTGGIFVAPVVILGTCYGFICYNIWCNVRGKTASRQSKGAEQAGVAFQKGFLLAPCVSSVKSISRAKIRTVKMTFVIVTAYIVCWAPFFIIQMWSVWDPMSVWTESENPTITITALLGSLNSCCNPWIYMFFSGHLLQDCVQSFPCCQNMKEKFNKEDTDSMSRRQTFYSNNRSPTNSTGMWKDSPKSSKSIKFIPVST

CCCCCCOc1ccccc1C(N)=O [EXALAMIDE]; > 30 µM

Provide reported AC50 for each item, in the same order as listed.
1. CCOC(=O)[N-]c1cn(N2CCOCC2)n[o+]1
2. O=C(O)C[C@H](O)C[C@H](O)/C=C/c1c(C2CC2)nc2ccccc2c1-c1ccc(F)cc1

1: > 30 µM; 2: > 10 µM

Hello, I am looking for reported AC50 with Vasopressin V1a receptor (Homo sapiens, UniProt P37288) for CC(=O)O[C@H]1CC[C@@]2(C)C(=CC[C@@H]3[C@@H]2CC[C@]2(C)C(c4cccnc4)=CC[C@@H]32)C1 [ABIRATERONE ACETATE] . Could you help?
> 30 µM

====

These records show AC50 for Sodium-dependent noradrenaline transporter (Homo sapiens, UniProt P23975).

Example molecules with recorded AC50:
CC[C@H]1OC(=O)[C@H](C)[C@@H](O[C@H]2C[C@@](C)(OC)[C@@H](O)[C@H](C)O2)[C@H](C)[C@@H](O[C@@H]2O[C@H](C)C[C@H](N(C)C)[C@H]2O)[C@](C)(O)C[C@@H](C)CN(C)[C@H](C)[C@@H](O)[C@]1(C)O [AZITHROMYCIN]; > 30 µM
COC1=C(OC)C(=O)C(C/C=C(\C)CC/C=C(\C)CC/C=C(\C)CC/C=C(\C)CC/C=C(\C)CC/C=C(\C)CC/C=C(\C)CC/C=C(\C)CC/C=C(\C)CCC=C(C)C)=C(C)C1=O [UBIDECARENONE]; > 30 µM
O=c1[nH]c(=O)n([C@H]2C[C@H](O)[C@@H](CO)O2)cc1F [FLOXURIDINE]; > 30 µM
Nc1ccc2cc3ccc(N)cc3nc2c1 [PROFLAVINE]; 2.69 µM
Cc1cc(OP(=O)(O)O)c2ccccc2c1OP(=O)(O)O [MENADIOL SODIUM DIPHOSPHATE]; > 30 µM

Take each entry in turn and give its AC50.
1. N[C@@H](C(=O)N[C@@H]1C(=O)N2C(C(=O)O)=C(Cl)CC[C@H]12)c1ccccc1 [LORACARBEF ANHYDROUS]
2. CN1CCN(C2=Nc3ccccc3Sc3ccc(Cl)cc32)CC1 [CLOTHIAPINE]

> 30 µM
0.76 µM

Quick one: give me AC50 for each item below, same order please.
1. CCCNC(C)C(=O)Nc1c(C)csc1C(=O)OC (centres undefined) [ARTICAINE]
2. OC(c1ccccc1)(c1ccccc1)C12CC[N+](CCOCc3ccccc3)(CC1)CC2

1: > 30 µM; 2: 2.73 µM

Value sought for every listed molecule: AC50.
1. CC[C@H]1CN2CC[C@H]1C[C@H]2[C@H](O)c1ccnc2ccc(OC)cc12 [HYDROQUININE]
2. CCC1=C(C)CN(C(=O)NCCc2ccc(S(=O)(=O)NC(=O)N[C@H]3CC[C@H](C)CC3)cc2)C1=O [GLIMEPIRIDE]
3. COc1cc2c3cc1Oc1cc(ccc1O)C[C@@H]1c4c(cc(OC)c(O)c4Oc4ccc(cc4)C[C@@H]3N(C)CC2)CC[N+]1(C)C [TUBOCURARINE]
4. C[N+]1(CCCCC[N+]2(C)CCCC2)CCCC1 [PENTOLINIUM]
5. COc1cc([C@@H]2c3cc4c(cc3[C@H](O)[C@H]3COC(=O)[C@H]23)OCO4)cc(OC)c1OC [PODOFILOX]
6. CN(C)[C@@H](c1cccc(O)c1)[C@H]1CCCC[C@H]1O [CIRAMADOL]
7. C[S+](CC[C@H](N)C(=O)[O-])C[C@H]1O[C@@H](n2cnc3c(N)ncnc32)[C@H](O)[C@@H]1O (some centres undefined) [ADEMETIONINE]

> 30 µM
> 30 µM
> 30 µM
> 30 µM
> 30 µM
> 30 µM
> 30 µM

For the 4 molecules below, give their AC50 values.
1. N[C@H](C(=O)O)[C@H](O)c1ccc(O)c(O)c1 [DROXIDOPA]
2. CCCCCCOc1nsnc1C1=CCCN(C)C1 [XANOMELINE]
3. CC[C@H]1CN2CCc3cc(OC)c(OC)cc3[C@@H]2C[C@@H]1C[C@H]1NCCc2cc(OC)c(OC)cc21 [EMETINE]
4. CO[C@H]1C[C@@H]2CC[C@@H](C)[C@@](O)(O2)C(=O)C(=O)N2CCCC[C@H]2C(=O)O[C@H]([C@H](C)C[C@@H]2CC[C@@H](O)[C@H](OC)C2)CC(=O)[C@H](C)/C=C(\C)[C@@H](O)[C@@H](OC)C(=O)[C@H](C)C[C@H](C)/C=C/C=C/C=C/1C [SIROLIMUS]

1. > 30 µM
2. 2.74 µM
3. > 30 µM
4. > 30 µM

Batch request: AC50 for each of the following molecules.
1. CCc1oc2ccccc2c1C(=O)c1cc(I)c(O)c(I)c1 [BENZIODARONE]
2. O=C(O)c1cc(O)ccc1O [GENTISIC ACID]
3. Oc1c(Cl)cc(Cl)c2cccnc12 [CHLOROXINE]
4. CC(C)C[C@H]1C(=O)N2CCC[C@H]2[C@]2(O)O[C@](NC(=O)[C@@H]3C=C4c5cccc6[nH]c(Br)c(c56)C[C@H]4N(C)C3)(C(C)C)C(=O)N12 [BROMOCRIPTINE]
5. Nc1ccncc1N [AMIFAMPRIDINE]

1: 12.6 µM; 2: > 30 µM; 3: 5.19 µM; 4: > 30 µM; 5: > 30 µM

Dear reader, for each entry below, please note its AC50.
1. CC(=O)N[C@@H]1[C@@H](O)[C@H](O)[C@@H](CO)O[C@H]1O [N-ACETYLGLUCOSAMINE]
2. O=C(O)c1ccccc1C(=O)Nc1ccc(S(=O)(=O)Nc2nccs2)cc1 [PHTHALYLSULFATHIAZOLE]
3. CC(=O)OCC1=C(C(=O)O)N2C(=O)[C@@H](NC(=O)[C@H](N)c3ccccc3)[C@H]2SC1 [CEPHALOGLYCIN]
4. CC[C@H]1[C@@H](O)[C@@H]2[C@H](CC[C@]3(C)[C@@H]([C@H](C)CCC(=O)O)CC[C@@H]23)[C@@]2(C)CC[C@@H](O)C[C@@H]12 [OBETICHOLIC ACID]

1. > 30 µM
2. > 30 µM
3. > 30 µM
4. > 30 µM

Origin of values: ChEMBL document CHEMBL5291721
